Numbers sourced from patent US20140072563A1.

Molecular target: hErbB3.mmh (soluble monomeric human ErbB3 extracellular domain with C-terminal myc-myc-hexahistidine tag) (human, UniProt P21860 20-642)
Sequence (P21860 other isoform, or with tags, fused parts or gaps): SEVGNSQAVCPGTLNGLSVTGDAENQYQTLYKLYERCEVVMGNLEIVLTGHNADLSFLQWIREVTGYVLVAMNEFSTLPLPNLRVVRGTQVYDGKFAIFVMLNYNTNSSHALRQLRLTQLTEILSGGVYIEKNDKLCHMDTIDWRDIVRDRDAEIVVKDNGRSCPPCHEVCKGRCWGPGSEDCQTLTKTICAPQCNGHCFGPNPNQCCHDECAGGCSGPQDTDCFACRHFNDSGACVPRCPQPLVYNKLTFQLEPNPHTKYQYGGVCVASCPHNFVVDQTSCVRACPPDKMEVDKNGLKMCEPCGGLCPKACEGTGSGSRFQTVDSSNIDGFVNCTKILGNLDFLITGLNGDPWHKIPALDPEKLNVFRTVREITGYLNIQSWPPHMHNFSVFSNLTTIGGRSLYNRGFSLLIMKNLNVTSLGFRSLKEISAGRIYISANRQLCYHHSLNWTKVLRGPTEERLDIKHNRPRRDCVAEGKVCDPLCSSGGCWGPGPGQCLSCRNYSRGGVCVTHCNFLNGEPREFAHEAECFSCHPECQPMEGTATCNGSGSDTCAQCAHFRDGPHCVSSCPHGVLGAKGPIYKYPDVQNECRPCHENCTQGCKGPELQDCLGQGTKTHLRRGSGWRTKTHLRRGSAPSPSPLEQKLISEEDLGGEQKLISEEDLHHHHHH
Experiment: SPR (Biacore), 25 C, mAb capture format
property.name: koff (s⁻¹)
Give the number; s⁻¹ is assumed, so skip it.

I'd like to know its koff. The binder in question is H4H2108P (antibody, V domains shown, Fully human, human IgG4 Fc (H4H prefix)) VH: EVQLLESGGDLVQPGGSLRLSCATSGFSFSSDAMNWVRQAPGKGLEWVSGISGSGGNTYYADSVKGRFTISRDISKSTLSLQMNSLRAEDTAVYYCAKEGTNMVRGVVMEDNGMDVWGQGTTVTVSA VL: DIQMTQSPSSVSASVGDRVTITCRASQGISDYLAWYQQKPGKAPKLLIYAASSLQSGVPSRFSGRGSGTDFTLTISTLQPEDFATYYCQQANSFPLTFGGGTKVDIKR
8.13e-05

I'd like to know its koff. The binder in question is H1M1828N (antibody, V domains shown, Hybridoma chimeric antibody: human variable domains, mouse constant domains (H1M prefix, mouse Fc)) VH: EVQLVESGGGLVQPGRSLRLSCAASGFTFDDYAMYWVRQAPGKGLEWVSGISWNSGSIGYADSVKGRFTISRDNAKNSLYLQMDSLRAEDTALYYCARDMMEVDLYGMDVWGQGTTVTVSS VL: DIQMTQSPSSVSASVGDRVTITCRASQDISSWLAWYQQKPGTAPKFLIYETSSLQSGVPSRFSGSGSGTDFILTISSLQPEDFATYYCQQTDSFPHTFGQGTKLEIR
0.000265

I'd like to know its koff. The binder in question is H2M1937N (antibody, V domains shown, Hybridoma chimeric antibody: human variable domains, mouse IgG2 Fc (H2M prefix)) VH: QVQLQQWDAGLLKPSETLSLTCAVYGGSFSSYYWSWIRQPPGKGLEWIGEINHRGSTNYNPSLKSRVTISVDTSKNQFSLKLRSVTAADTAVYYCARGGVAARPDWHFFDYWGQGTLVTVSS VL: DIQMTQSPSSLSASVGDRVTITCRASQVIRNDLGWFQQRPGKAPKRLIYAASSLQSEVPSRFSGSGSGTEFTLTITSLQPEDFATYYCLQHNSYPLTFGQGTRLEIK
5.63e-05

I'd like to know its koff. The binder in question is H2M1930N (antibody, V domains shown, Hybridoma chimeric antibody: human variable domains, mouse IgG2 Fc (H2M prefix)) VH: EVQLVESGGGLVKPGGSLRLSCVASGFTFSSYNMNWVRQAPGKGLEWVSFISGSSNYIHYADSVKGRFTISRDNAKNALYLQMNSLRAEDTAVYYCARDDGDYDWFDPWGQGTLVTVSS VL: EIVLTQSPGTLSLSPGERATLSCRASQSVSSSYLAWYQQKPGQAPRLLIYGTSSRATGIPDRFSGSGSGTDFTLTISRLEPEDFAVYYCQQYDNSYTFGQGTKLEIK
0.000109
